Would you mind telling me the reported log10 of TGI of each entry?
Test system: NCI-H522 lung
Assay: NCI tumour cell line growth inhibition, 48 h
Plainly stated, the numbers are log10 of TGI given in µM.

1) COc1cc2c(cc1OCCCCN1CCN(CCCCOc3cc4c(cc3OC)C(=O)N3CCC[C@H]3C=N4)CC1)N=C[C@@H]1CCCN1C2=O = 0.17
2) CC(=O)n1c(-c2ccc(Cl)c(Cl)c2)cn(-c2ccc(Cl)cc2)c1=O = 1.73
3) CCCCN(CCCC)CCC(O)c1cc2ccc(C(F)(F)F)cc2c2cc(C(F)(F)F)ccc12 (stereo not given) = 0.55
4) CC(=O)C1=NN(c2ccccc2)C2(S1)SC(c1ccccc1)(c1ccccc1)c1ccccc12 (stereo not given) = 1.90
5) C/C(=N\NC(=S)Nc1ccc(Cl)cc1)c1nc2ncccc2[nH]1 = 1.31

For the next question, use this compound.
Problem: Look up log10 of TGI for this compound: O=c1c(Sc2ncccn2)c(Sc2ncccn2)cnn1CCl
Result: 0.37
